# experiment-description: Single dose PK in healthy subjects (Cohorts 1, 2, S1 and S2), plasma
# Assay type: in vivo, human
# experimental-context: human, plasma, intravenous, 134.4 mg; 1 hr; read-out: Plasma concentration, Minimum
attribute-measured: concentration at 1 h
Put your answer as a value accompanied by its unit after it.

The recorded concentration at 1 h for entry COC(=O)N1CCC[C@H](NS(C)(=O)=O)[C@@H]1CO[C@H]1CC[C@@H](c2ccccc2)CC1 equals 181 ng/mL

###

# experiment-description: Single dose PK in healthy subjects (Cohorts 1, 2, S1 and S2), plasma
# Type: in vivo, human
# experimental-context: human, plasma, iv, 28 mg, 28 mg single IV infusion, healthy subjects; read-out: AUCinf Geo Mean
attribute-measured: AUC(0-inf) (ng·h/mL)
# value in ng·h/mL; strip the unit string

Notebook: COC(=O)N1CCC[C@H](NS(C)(=O)=O)[C@@H]1CO[C@H]1CC[C@@H](c2ccccc2)CC1 , AUC(0-inf) read as 524
